assaySystem: human ether-à-go-go-related gene (hERG) potassium channel (human, UniProt Q12809);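 further: peak tail current of the secondary pulse compared with the same well before compound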
Sequence (Q12809 whole entry, looked up): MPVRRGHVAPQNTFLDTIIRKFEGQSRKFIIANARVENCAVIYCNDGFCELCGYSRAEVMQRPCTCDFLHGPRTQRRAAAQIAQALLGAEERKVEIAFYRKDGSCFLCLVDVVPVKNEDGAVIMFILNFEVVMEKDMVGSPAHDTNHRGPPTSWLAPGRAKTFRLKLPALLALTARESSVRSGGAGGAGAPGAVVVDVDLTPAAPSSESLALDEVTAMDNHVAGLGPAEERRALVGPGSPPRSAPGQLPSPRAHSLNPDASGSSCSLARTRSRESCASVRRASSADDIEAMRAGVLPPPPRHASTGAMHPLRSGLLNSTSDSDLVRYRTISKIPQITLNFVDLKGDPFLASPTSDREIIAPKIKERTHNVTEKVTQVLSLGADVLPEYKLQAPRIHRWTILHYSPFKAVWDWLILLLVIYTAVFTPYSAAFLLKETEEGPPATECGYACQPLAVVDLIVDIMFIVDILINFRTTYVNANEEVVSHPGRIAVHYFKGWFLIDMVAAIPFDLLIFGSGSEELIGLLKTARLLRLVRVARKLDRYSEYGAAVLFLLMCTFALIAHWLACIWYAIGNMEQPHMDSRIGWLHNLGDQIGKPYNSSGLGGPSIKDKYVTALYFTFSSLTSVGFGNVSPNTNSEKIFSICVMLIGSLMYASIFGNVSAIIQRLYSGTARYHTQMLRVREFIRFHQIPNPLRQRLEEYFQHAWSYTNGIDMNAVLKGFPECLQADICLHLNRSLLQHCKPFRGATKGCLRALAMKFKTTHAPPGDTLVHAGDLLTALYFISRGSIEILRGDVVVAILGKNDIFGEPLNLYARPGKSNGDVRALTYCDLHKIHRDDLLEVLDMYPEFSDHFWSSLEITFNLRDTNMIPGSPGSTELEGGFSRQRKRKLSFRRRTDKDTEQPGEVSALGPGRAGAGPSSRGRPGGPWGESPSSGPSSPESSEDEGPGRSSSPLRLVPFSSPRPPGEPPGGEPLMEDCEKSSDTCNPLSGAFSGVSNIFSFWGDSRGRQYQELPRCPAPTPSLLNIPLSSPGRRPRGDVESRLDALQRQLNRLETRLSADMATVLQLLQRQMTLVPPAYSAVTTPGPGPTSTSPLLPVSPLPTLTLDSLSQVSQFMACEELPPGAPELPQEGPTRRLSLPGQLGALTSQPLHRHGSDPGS
runDescription: primary screen, population patch clamp on CHO cells stably expressing hERG; higher = less effect of the substance
The campaign covered roughly 310,000 compounds. About 14,000 (4.5%) showed an effect of 50% or more. Effects have a minus sign here. This excerpt belongs to a sample that is enriched for strong results.
Assign Yes whenever hERG current change (%, negative = inhibition) at 10uM does not fall below -10%; assign No whenever it does.

Assess whether reported hERG current change (%, negative = inhibition) at 10uM for COc1ccc(C(=O)N/C(=C\c2ccc([N+](=O)[O-])cc2)C(=O)NC(CCSC)C(=O)O)cc1 (stereo not shown) sits at -10% or higher. Yes

Assess whether reported hERG current change (%, negative = inhibition) at 10uM for COc1ccc(C(=O)N/C(=C\c2cc(OC)c(OC)cc2[N+](=O)[O-])C(=O)NCCO)cc1 sits at -10% or higher. Yes

Assess whether reported hERG current change (%, negative = inhibition) at 10uM for CC(C)Cc1ccc(CN2CCCC(NC(=O)Cn3cnnn3)C2)cc1 (stereo not shown) sits at -10% or higher. No

Assess whether reported hERG current change (%, negative = inhibition) at 10uM for COC(=O)CCCn1nc(NC(=O)COc2ccc(F)cc2)cc1C sits at -10% or higher. Yes

Assess whether reported hERG current change (%, negative = inhibition) at 10uM for COc1ccc(/C=C(/NC(=O)c2ccc([N+](=O)[O-])cc2)C(=O)NC(C)(C)C)cc1 sits at -10% or higher. No

Assess whether reported hERG current change (%, negative = inhibition) at 10uM for Cc1ccc2c(c1)CCCN2C(=O)c1ccc2c(c1)OCO2 sits at -10% or higher. Yes

Assess whether reported hERG current change (%, negative = inhibition) at 10uM for Cc1ccc(-c2cc(C(=O)NCCCn3ccnc3)c3ccccc3n2)s1 sits at -10% or higher. No

Assess whether reported hERG current change (%, negative = inhibition) at 10uM for CC(=O)c1c(C)nn(CC(=O)NC2CCCN(Cc3ccc(CC(C)C)cc3)C2)c1C (stereo not shown) sits at -10% or higher. No

Assess whether reported hERG current change (%, negative = inhibition) at 10uM for Cc1noc(C)c1CCC(=O)NC1CCCN(Cc2ccc(CC(C)C)cc2)C1 (stereo not shown) sits at -10% or higher. No

Assess whether reported hERG current change (%, negative = inhibition) at 10uM for CC(C)Cc1ccc(CN2CCCC(NC(=O)CCn3cnnn3)C2)cc1 (stereo not shown) sits at -10% or higher. No

Assess whether reported hERG current change (%, negative = inhibition) at 10uM for CCCC/C(O)=C1\C(=O)CCCC1=NCCc1c(C)[nH]c2ccccc12 sits at -10% or higher. No

Assess whether reported hERG current change (%, negative = inhibition) at 10uM for CC(C)Cc1ccc(CN2CCCC(NC(=O)CCN3CCOCC3)C2)cc1 (stereo not shown) sits at -10% or higher. No

Assess whether reported hERG current change (%, negative = inhibition) at 10uM for C=CCNC(=O)/C(=C\c1ccc(OC)cc1)NC(=O)c1ccc([N+](=O)[O-])cc1 sits at -10% or higher. No

Assess whether reported hERG current change (%, negative = inhibition) at 10uM for Cc1ccc(CNC(=O)c2cc(S(=O)(=O)N3CCOCC3)cn2C)cc1 sits at -10% or higher. No

Assess whether reported hERG current change (%, negative = inhibition) at 10uM for Br.Cc1csc(=Nc2ccccc2)n1C sits at -10% or higher. Yes

Assess whether reported hERG current change (%, negative = inhibition) at 10uM for CN(C)S(=O)(=O)c1ccc(NC(=O)CN2C(=O)NC(Cc3ccccc3)C2=O)cc1 (stereo not shown) sits at -10% or higher. Yes

Assess whether reported hERG current change (%, negative = inhibition) at 10uM for Cc1ccc(-c2cc(C(=O)NCCCn3ccnc3)c3cc(Br)ccc3n2)o1 sits at -10% or higher. No

Assess whether reported hERG current change (%, negative = inhibition) at 10uM for COc1ccc(/C=C(/NC(=O)c2ccc([N+](=O)[O-])cc2)C(=O)NCCCN(C)C)cc1 sits at -10% or higher. No

Assess whether reported hERG current change (%, negative = inhibition) at 10uM for C=CCNC(=O)/C(=C\c1ccc([N+](=O)[O-])cc1)NC(C)=O sits at -10% or higher. Yes

---

hERG current change (%, negative = inhibition) at 10uM: recorded values
assaySystem: human ether-à-go-go-related gene (hERG) potassium channel (human, UniProt Q12809);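 further: peak tail current of the secondary pulse compared with the same well before compound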
runDescription: primary screen, population patch clamp on CHO cells stably expressing hERG; higher = less effect of the substance
Among all 310,000 compounds or so, about 14,000 (4.5%) showed an effect of 50% or more. The effect is printed as a negative number. This excerpt belongs to a sample that is enriched for strong results.
Report only the number, with the unit % understood.

Reported hERG current change (%, negative = inhibition) at 10uM, compound COCCN(C(=O)COC(=O)CCc1ccc(OC)cc1)c1c(N)n(Cc2ccccc2)c(=O)[nH]c1=O : ____ 27.6

Reported hERG current change (%, negative = inhibition) at 10uM, compound N#Cc1ccc(NC(=O)COC(=O)CCNS(=O)(=O)c2ccccc2)cc1 : ____ -34.4

Reported hERG current change (%, negative = inhibition) at 10uM, compound O=C(CS(=O)(=O)c1cn(Cc2ccc(F)cc2)c2ccccc12)N1CCCCC1 : ____ -0.405

Next:
Reported hERG current change (%, negative = inhibition) at 10uM, compound CCS(=O)(=O)Nc1cccc(C2=NN(S(=O)(=O)c3ccc(C)cc3)C(c3ccco3)C2)c1 (stereo not shown) : ____ 12.9

---

assaySystem: human ether-à-go-go-related gene (hERG) potassium channel (human, UniProt Q12809);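 further: peak tail current of the secondary pulse compared with the same well before compound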
runDescription: primary screen, population patch clamp on CHO cells stably expressing hERG; higher = less effect of the substance
Out of some 310,000 compounds screened, about 14,000 (4.5%) showed an effect of 50% or more. Effects have a minus sign here. The sample holds strong results, similar compounds and a random draw of the others, so the mix is not that of the screen.
reportedProperty: hERG current change (%, negative = inhibition) at 10uM (%)
Report only the number, with the unit % understood.

Record excerpt, results attached:
Reported hERG current change (%, negative = inhibition) at 10uM, molecule O=C(NCc1cccnc1)c1ccc(Cl)c(S(=O)(=O)N2CCCCCC2)c1 : ____ -36.2

Reported hERG current change (%, negative = inhibition) at 10uM, molecule Cc1ccc(S(=O)(=O)N2CCCC2)cc1C(=O)NCc1ccccn1 : ____ 5.54

Next:
Reported hERG current change (%, negative = inhibition) at 10uM, molecule Cc1ccc(C(=O)NCc2ccccn2)cc1S(=O)(=O)N1CCOCC1 : ____ 8.99

Reported hERG current change (%, negative = inhibition) at 10uM, molecule O=C(NCCCN1CCN(c2cccc(Cl)c2)CC1)c1cccc(N2CCCC2=O)c1 : ____ -38

Reported hERG current change (%, negative = inhibition) at 10uM, molecule CSc1ncc(C(=O)Nc2ccccc2C)c(C)n1 : ____ 12.5

---

assaySystem: human ether-à-go-go-related gene (hERG) potassium channel (human);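 further: peak tail current of the secondary pulse compared with the same well before compound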
runDescription: primary screen, population patch clamp on CHO cells stably expressing hERG; higher = less effect of the substance
The campaign covered roughly 310,000 compounds. About 14,000 (4.5%) showed an effect of 50% or more. Effects have a minus sign here. The sample as a whole holds a higher share of strong results than the screen did.
reportedProperty: hERG current change (%, negative = inhibition) at 10uM
Note: a bare number is incomplete; add the unit.

Reported hERG current change (%, negative = inhibition) at 10uM, compound NC(=O)C1CCN(C(=O)CN(c2ccc3c(c2)OCCO3)S(=O)(=O)c2ccccc2)CC1 : ____ -18%

Next:
Reported hERG current change (%, negative = inhibition) at 10uM, compound CC(=O)Nc1ccc(NC(=O)C(C)Sc2nnc(C3CC3)n2-c2ccccc2)cc1 (centres unmarked) : ____ 8.37%

Reported hERG current change (%, negative = inhibition) at 10uM, compound CCCCOc1ccc(C)cc1CN(CCO)CCO.Cl : ____ 1.6%

Reported hERG current change (%, negative = inhibition) at 10uM, compound COC(=O)c1ccc(OCC(O)CN2CCN(CC(O)COc3ccc(C(=O)OC)cc3)CC2)cc1 (centres unmarked) : ____ -72.9%

Reported hERG current change (%, negative = inhibition) at 10uM, compound CC(=O)Nc1ccc(OCCC[n+]2ccccc2)cc1.[Cl-] : ____ 40.4%

Reported hERG current change (%, negative = inhibition) at 10uM, compound CC1=C(C(=O)OC(C)C)C(c2cccs2)N2C(=O)CCSC2=N1 (centres unmarked) : ____ -11.5%

Reported hERG current change (%, negative = inhibition) at 10uM, compound COc1ccc(/C=N/NC(=O)c2cc(-c3ccccc3OC(C)C)nc3ccccc23)cc1CN1CCOCC1 : ____ -4.54%

Reported hERG current change (%, negative = inhibition) at 10uM, compound CCCCCc1ccc(S(=O)(=O)Nc2cc(C)ccn2)cc1 : ____ 8.41%

Reported hERG current change (%, negative = inhibition) at 10uM, compound CCCCCc1ccc(OCCCC[n+]2ccc(C)cc2)c(CCCCC)c1.[Cl-] : ____ -77%

Reported hERG current change (%, negative = inhibition) at 10uM, compound Cc1ccc(OCC(O)CN2CCN(CC(O)COC(C)C)CC2)c(C(C)(C)C)c1 (centres unmarked) : ____ -65.2%

Reported hERG current change (%, negative = inhibition) at 10uM, compound Cc1cccc(OCC(O)CN2CCNCC2)c1.Cl (centres unmarked) : ____ 26.5%

Reported hERG current change (%, negative = inhibition) at 10uM, compound CCOC(=O)C1=C(C)NC(=O)/C1=C\N(C)C : ____ 19%

Reported hERG current change (%, negative = inhibition) at 10uM, compound CCCCCc1ccc(OCCCC[n+]2cccc(C)c2)c(CCCCC)c1.[Cl-] : ____ -71.1%

Reported hERG current change (%, negative = inhibition) at 10uM, compound Cc1ccc(N2CCN(CC(O)COc3cccc(C)c3)CC2)cc1 (centres unmarked) : ____ -55.1%

Reported hERG current change (%, negative = inhibition) at 10uM, compound CCCCCOc1ccc(C)cc1CN(CCCl)CCCl.Cl : ____ 13.1%

Reported hERG current change (%, negative = inhibition) at 10uM, compound CCCCCCC[n+]1ccc(-c2cc[n+](CCCCCCC)cc2)cc1.[I-] : ____ 9.12%

Reported hERG current change (%, negative = inhibition) at 10uM, compound CCOC(=O)C1CCN(C(=O)CN(c2ccc3c(c2)OCCO3)S(=O)(=O)c2ccccc2)CC1 : ____ -53.1%

Reported hERG current change (%, negative = inhibition) at 10uM, compound O=C(O)c1ccc(Oc2ccc(S(=O)(=O)c3ccc(C(=O)O)c(C(=O)O)c3)cc2)cc1 : ____ 9.42%

Reported hERG current change (%, negative = inhibition) at 10uM, compound O=C1COc2ccc(C(=O)CSc3ccccc3C(=O)O)cc2N1 : ____ 12.1%

Reported hERG current change (%, negative = inhibition) at 10uM, compound CCCCCc1ccc(OCCC[n+]2ccccc2)c(CCCCC)c1.[Cl-] : ____ -75.7%
